organism: Rattus norvegicus; assay: Open TG-GATES - Regimen: Single; format: toxicity, organism-based, Sprague-Dawley; parameters: regimen Single, gender Male, age 6 weeks; conditions: in vivo, po, 0 mg/kg, 6 h, tissue Blood, route gavage, dose level Control
Entries and their MCV values follow.
MEASURED_ENDPOINT: MCV (fL)

MOLECULE: O=C(O)c1cc(/N=N/c2ccc(S(=O)(=O)Nc3ccccn3)cc2)ccc1O [SULFASALAZINE]
MEASURED_ENDPOINT: MCV
OBSERVED_MEASUREMENT: 63.6
--
MOLECULE: NC(=O)N1c2ccccc2C=Cc2ccccc21 [CARBAMAZEPINE]
MEASURED_ENDPOINT: MCV
OBSERVED_MEASUREMENT: 62.5
--
MOLECULE: C[C@H](CS)C(=O)N1CCC[C@H]1C(=O)O [CAPTOPRIL]
MEASURED_ENDPOINT: MCV
OBSERVED_MEASUREMENT: 64.3
--
MOLECULE: Cn1c(=O)c2[nH]cnc2n(C)c1=O.O [THEOPHYLLINE]
MEASURED_ENDPOINT: MCV
OBSERVED_MEASUREMENT: 62.3
--
MOLECULE: CC(=O)Oc1ccccc1C(=O)O [ASPIRIN]
MEASURED_ENDPOINT: MCV
OBSERVED_MEASUREMENT: 60.5
--
MOLECULE: CN(C)CCC=C1c2ccccc2CCc2ccccc21 [AMITRIPTYLINE]
MEASURED_ENDPOINT: MCV
OBSERVED_MEASUREMENT: 63.3
--
MOLECULE: CCc1cc(C(N)=S)ccn1 [ETHIONAMIDE]
MEASURED_ENDPOINT: MCV
OBSERVED_MEASUREMENT: 65.2
--
MOLECULE: Clc1ccccc1CN1CCc2sccc2C1 [TICLOPIDINE]
MEASURED_ENDPOINT: MCV
OBSERVED_MEASUREMENT: 60.3
--
MOLECULE: NC(=O)N/N=C/c1ccc([N+](=O)[O-])o1 [NITROFURAZONE]
MEASURED_ENDPOINT: MCV
OBSERVED_MEASUREMENT: 68.6
--
MOLECULE: COc1ccc(Cc2nccc3cc(OC)c(OC)cc23)cc1OC [PAPAVERINE]
MEASURED_ENDPOINT: MCV
OBSERVED_MEASUREMENT: 62.5
--
MOLECULE: O=C(O)c1cn(C2CC2)c2cc(N3CCNCC3)c(F)cc2c1=O [CIPROFLOXACIN]
MEASURED_ENDPOINT: MCV
OBSERVED_MEASUREMENT: 66.3
--
MOLECULE: CSc1ccc2c(c1)N(CCC1CCCCN1C)c1ccccc1S2 (configuration not stated) [THIORIDAZINE]
MEASURED_ENDPOINT: MCV
OBSERVED_MEASUREMENT: 64.4

----------
Entries and their BUN values follow.
organism: Rattus norvegicus; assay: Open TG-GATES - Regimen: Daily Repeat; assay type: toxicity, organism-based, Sprague-Dawley; design: regimen Daily Repeat, gender Male, age 6 weeks; settings: in vivo, po, 0 mg/kg, 72 h, tissue Plasma, route gavage, dose level Control, time 3 day

MOLECULE: C[C@H](CS)C(=O)N1CCC[C@H]1C(=O)O [CAPTOPRIL]
MEASUREMENT_UNITS: mg/dL
BUN: 17.6

MOLECULE: CCc1cc(C(N)=S)ccn1 [ETHIONAMIDE]
MEASUREMENT_UNITS: mg/dL
BUN: 18.2

MOLECULE: COc1ccc2c(c1)c(CC(=O)O)c(C)n2C(=O)c1ccc(Cl)cc1 [INDOMETHACIN]
MEASUREMENT_UNITS: mg/dL
BUN: 15.4

MOLECULE: NC(=O)N/N=C/c1ccc([N+](=O)[O-])o1 [NITROFURAZONE]
MEASUREMENT_UNITS: mg/dL
BUN: 16

MOLECULE: CO[C@H]1/C=C/O[C@@]2(C)Oc3c(C)c(O)c4c(O)c(c(/C=N/N5CCN(C)CC5)c(O)c4c3C2=O)NC(=O)/C(C)=C\C=C\[C@H](C)[C@H](O)[C@@H](C)[C@@H](O)[C@@H](C)[C@H](OC(C)=O)[C@@H]1C [RIFAMPIN]
MEASUREMENT_UNITS: mg/dL
BUN: 19

MOLECULE: NC(=O)N1c2ccccc2C=Cc2ccccc21 [CARBAMAZEPINE]
MEASUREMENT_UNITS: mg/dL
BUN: 15.6

MOLECULE: O=C(O)c1cc(/N=N/c2ccc(S(=O)(=O)Nc3ccccn3)cc2)ccc1O [SULFASALAZINE]
MEASUREMENT_UNITS: mg/dL
BUN: 16.6

MOLECULE: CCCC(CCC)C(=O)O [VALPROIC ACID]
MEASUREMENT_UNITS: mg/dL
BUN: 16.2

MOLECULE: Cn1c(=O)c2[nH]cnc2n(C)c1=O.O [THEOPHYLLINE]
MEASUREMENT_UNITS: mg/dL
BUN: 17.6

MOLECULE: CC(=O)Oc1ccccc1C(=O)O [ASPIRIN]
MEASUREMENT_UNITS: mg/dL
BUN: 14.8

MOLECULE: O=C(O)c1cn(C2CC2)c2cc(N3CCNCC3)c(F)cc2c1=O [CIPROFLOXACIN]
MEASUREMENT_UNITS: mg/dL
BUN: 17.2

MOLECULE: Clc1ccccc1CN1CCc2sccc2C1 [TICLOPIDINE]
MEASUREMENT_UNITS: mg/dL
BUN: 17

MOLECULE: CN(C)CCC=C1c2ccccc2CCc2ccccc21 [AMITRIPTYLINE]
MEASUREMENT_UNITS: mg/dL
BUN: 16.4

MOLECULE: CSc1ccc2c(c1)N(CCC1CCCCN1C)c1ccccc1S2 (stereo not given) [THIORIDAZINE]
MEASUREMENT_UNITS: mg/dL
BUN: 16.6

MOLECULE: COc1ccc(Cc2nccc3cc(OC)c(OC)cc23)cc1OC [PAPAVERINE]
MEASUREMENT_UNITS: mg/dL
BUN: 16

----------
species: Rattus norvegicus; assay: Open TG-GATES - Regimen: Single; assay type: toxicity, organism-based, Sprague-Dawley; set-up: regimen Single, gender Male, age 6 weeks; conditions: in vivo, po, 0 mg/kg, 9 h, tissue Plasma, route gavage, dose level Control
Entries and their Na values follow.
MEASURED_ENDPOINT: Na (meq/L)

MOLECULE: CN(C)CCC=C1c2ccccc2CCc2ccccc21
MEASURED_ENDPOINT: Na
MEASUREMENT_UNITS: meq/L
OBSERVED_MEASUREMENT: 142.6
--
MOLECULE: NC(=O)N/N=C/c1ccc([N+](=O)[O-])o1
MEASURED_ENDPOINT: Na
MEASUREMENT_UNITS: meq/L
OBSERVED_MEASUREMENT: 142
--
MOLECULE: O=C(O)c1cn(C2CC2)c2cc(N3CCNCC3)c(F)cc2c1=O
MEASURED_ENDPOINT: Na
MEASUREMENT_UNITS: meq/L
OBSERVED_MEASUREMENT: 139.2
--
MOLECULE: NC(=O)N1c2ccccc2C=Cc2ccccc21 [CARBAMAZEPINE]
MEASURED_ENDPOINT: Na
MEASUREMENT_UNITS: meq/L
OBSERVED_MEASUREMENT: 140.2
--
MOLECULE: Cn1c(=O)c2[nH]cnc2n(C)c1=O.O
MEASURED_ENDPOINT: Na
MEASUREMENT_UNITS: meq/L
OBSERVED_MEASUREMENT: 140.8
--
MOLECULE: CSc1ccc2c(c1)N(CCC1CCCCN1C)c1ccccc1S2 (configuration not stated)
MEASURED_ENDPOINT: Na
MEASUREMENT_UNITS: meq/L
OBSERVED_MEASUREMENT: 139.6
--
MOLECULE: CC(=O)Oc1ccccc1C(=O)O
MEASURED_ENDPOINT: Na
MEASUREMENT_UNITS: meq/L
OBSERVED_MEASUREMENT: 141.4
--
MOLECULE: COc1ccc(Cc2nccc3cc(OC)c(OC)cc23)cc1OC
MEASURED_ENDPOINT: Na
MEASUREMENT_UNITS: meq/L
OBSERVED_MEASUREMENT: 140.6
--
MOLECULE: C[C@H](CS)C(=O)N1CCC[C@H]1C(=O)O
MEASURED_ENDPOINT: Na
MEASUREMENT_UNITS: meq/L
OBSERVED_MEASUREMENT: 137.8
--
MOLECULE: CCc1cc(C(N)=S)ccn1 [ETHIONAMIDE]
MEASURED_ENDPOINT: Na
MEASUREMENT_UNITS: meq/L
OBSERVED_MEASUREMENT: 143.4
--
MOLECULE: Clc1ccccc1CN1CCc2sccc2C1
MEASURED_ENDPOINT: Na
MEASUREMENT_UNITS: meq/L
OBSERVED_MEASUREMENT: 141.8
--
MOLECULE: O=C(O)c1cc(/N=N/c2ccc(S(=O)(=O)Nc3ccccn3)cc2)ccc1O
MEASURED_ENDPOINT: Na
MEASUREMENT_UNITS: meq/L
OBSERVED_MEASUREMENT: 141.2
